Provenance of the data: patent US20020077284A1

# Target Desc: HIV-1 envelope protein gp41 subunit (HXB2 envelope), N-helix coiled-coil (HIV-1 (HXB2), UniProt P04578 512-856)
# Sequence (P04578 512-856): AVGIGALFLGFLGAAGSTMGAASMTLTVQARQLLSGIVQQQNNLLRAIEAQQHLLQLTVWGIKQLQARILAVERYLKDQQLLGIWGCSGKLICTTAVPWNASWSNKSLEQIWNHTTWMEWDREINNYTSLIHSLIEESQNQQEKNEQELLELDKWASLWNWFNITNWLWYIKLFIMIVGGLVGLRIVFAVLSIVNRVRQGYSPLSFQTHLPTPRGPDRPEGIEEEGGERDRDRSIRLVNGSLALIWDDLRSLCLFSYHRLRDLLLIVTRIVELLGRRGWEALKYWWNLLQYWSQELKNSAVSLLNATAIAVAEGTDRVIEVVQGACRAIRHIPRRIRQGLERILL
# Assay Text: cell-based or functional assay
Record form. Attribute: IC50 values (nanomolar) for cell fusion. Fill in for each entry.

Look over these answered cases.
Ac-WMEVDREINNYTSLIHSLIEESQNQQEKNEQELL-NH2 [C34 peptide Trp^631→Val] ... 4.5 nM
Ac-WMEFDREINNYTSLIHSLIEESQNQQEKNEQELL-NH2 [C34 peptide Trp^631→Phe] ... 1.6 nM
Ac-WMEGDREINNYTSLIHSLIEESQNQQEKNEQELL-NH2 (Position in gp41 numbering) [C34 peptide Trp^631→Gly] ... 25 nM

Shift focus to the following entry.
Fill blank: measured IC50 values (nanomolar) for cell fusion of the binder Ac-WMELDREINNYTSLIHSLIEESQNQQEKNEQELL-NH2 [C34 peptide Trp^631→Leu] is ____.
3.2 nM
